# Test system: Beet Armyworm (Spodoptera exigua)
# ASSAY_METHOD_TEXT: Insecticidal diet-surface test for beet armyworm
# Format: in vivo
# ASSAY_SETUP: 120 h, second-instar larvae on treated diet, 50 μg/cm^2 on diet surface, 5 days after treatment, 8 insects per treatment, read-out: LAPHEG AVG % Mortality (50 μg/cm^2)
RECORDED_ENDPOINT: mortality at 50 µg/cm2 (%)
Give bare numbers, in %.

| COMPOUND | REPORTED_VALUE |
| --- | --- |
| CN(C(=O)Nc1nc(OCC(F)(F)F)cc(OCC(F)(F)F)n1)c1ccc(C(F)(F)F)nc1 | 100 |
| CCN(C(=O)Nc1nc(OCC(F)(F)F)cc(OCC(F)(F)F)n1)c1ccc(Br)cc1 | 100 |
| N#CCN(C(=O)Nc1nc(OCC(F)(F)F)cc(OCC(F)(F)F)n1)c1ccc(OC(F)(F)F)cc1 | 100 |
| O=C(NNc1ccc(Cl)cc1)Nc1nc(OCC(F)(F)F)cc(OCC(F)(F)F)n1 | 100 |
| O=C(Nc1nc(OCC(F)(F)F)cc(OCC(F)(F)F)n1)N(c1ccc(C(F)(F)F)cc1)C1CC1 | 100 |

Provide reported mortality at 50 µg/cm2 for each item, in the same order as listed.
1. CN(C(=O)Nc1cc(OCC(F)(F)F)nc(OCC(F)(F)F)n1)c1ccc([N+](=O)[O-])cc1
2. O=C1CN(c2ccc(OC(F)(F)F)cc2)C(=O)N1c1nc(OCC(F)(F)F)cc(OCC(F)(F)F)n1
3. O=C(Nc1ccc(C(F)(F)F)cc1)Nc1nc(OCC(F)(F)F)cc(C(F)(F)F)n1
4. CN(C(=O)Nc1cc(C(F)(F)F)cc(OCC(F)(F)F)n1)c1ccc(OC(F)(F)F)cc1
5. CC(C)OCN(C(=O)Nc1nc(OCC(F)(F)F)cc(OCC(F)(F)F)n1)c1ccc(C(F)(F)F)cc1

Response:
100
88
0
100
100
